# melting point values compiled below

>  <record.smiles>
CCc1ccc(-c2c(-c3ccc[nH]c3=O)[nH]c3ccc(C(=O)NCCCN4CCOCC4)cc23)cc1

>  <melting point>
143 to 145 °C

$$$$
>  <record.smiles>
Cc1ccc(-c2c(-c3ccc[nH]c3=O)[nH]c3ccc(C(=O)NCCCN4CCOCC4)cc23)cc1

>  <melting point>
152 to 154 °C

$$$$
>  <record.smiles>
CN(C)CCCN(C)C(=O)c1ccc2[nH]c(-c3ccc[nH]c3=O)c(-c3ccccc3)c2c1

>  <melting point>
125 to 128 °C

$$$$
>  <record.smiles>
COC(=O)c1ccc2[nH]c(-c3ccc[nH]c3=O)c(-c3ccc(-c4ccccc4)cc3)c2c1

>  <melting point>
> 300 °C

$$$$
>  <record.smiles>
O=C(NCCCN1CCOCC1)c1ccc2[nH]c(-c3ccc[nH]c3=O)c(-c3cc(Cl)cc(Cl)c3)c2c1

>  <melting point>
125 to 130 °C

$$$$
>  <record.smiles>
O=C(c1ccc2[nH]c(-c3ccc[nH]c3=O)c(-c3ccc(-c4ccccc4)cc3)c2c1)N1CCN(c2ccccc2F)CC1

>  <melting point>
137 to 144 °C

$$$$

If you can, please state the reported melting point value of CN(C)CCCNCc1ccc2[nH]c(-c3ccc[nH]c3=O)c(-c3ccc(-c4ccccc4)cc3)c2c1 .
160 to 166 °C

Name the reported melting point value associated with the compound O=C(Nc1ccccc1F)c1ccc2[nH]c(-c3ccc[nH]c3=O)c(-c3ccccc3)c2c1
> 300 °C

So what's the measured melting point for this one? O=C(NCCCN1CCOCC1)c1cc2c3c(c1)c(-c1ccccc1)c(-c1ccc[nH]c1=O)n3CCC2
151 to 158 °C

What melting point value was documented for this compound, CN(C)CCCNC(=O)c1ccc2[nH]c(-c3ccc[nH]c3=O)c(-c3ccccc3)c2c1 ?
143 to 145 °C

Sourced from patent US8410144B2
